Reported values of TGI for individual entries
Test system: SN12C renal
Experiment: NCI tumour cell line growth inhibition, 48 h

The following compounds have reported results that may help.
>  <compound>
CC12CP(=O)(O)CC1C2(Cl)Cl (centres undefined)

>  <TGI>
> 100 µM

$$$$
>  <compound>
CCCCCCCC(=O)Nc1nc2[nH]c(CN3CCN(Cc4cccc(I)c4)CC3)c(CN3CCN(Cc4cccc(I)c4)CC3)c2c(=O)[nH]1

>  <TGI>
1.75 µM

$$$$
>  <compound>
CCOC(=O)NC(=O)c1cn(CCN(CCO)C(=O)NCCCCCCNC(=O)N(CCO)CCn2cc(C(=O)NC(=O)OCC)c(=O)[nH]c2=O)c(=O)[nH]c1=O

>  <TGI>
> 100 µM

$$$$
>  <compound>
COC(=O)CC(C(C(=O)OCc1ccccc1)C(C)O)N1C(=O)OCC1c1ccccc1 (centres undefined)

>  <TGI>
> 100 µM

$$$$
>  <compound>
COc1nc2c(c(=O)n1C)CN(c1ccccc1)C(=O)CN2C

>  <TGI>
> 100 µM

$$$$

Query block: Quick check: TGI of O=c1cc(-c2ccccc2)oc2c(O)c(O)ccc12 ?
Result block: > 100 µM

Query block: Quick check: TGI of Cn1cc(-c2ncnc3ccc(-c4cnc(Cl)c(NS(C)(=O)=O)c4)cc23)c2ccccc21 ?
Result block: > 100 µM

Query block: Quick check: TGI of Cc1cn(CCCCOC(=O)NC(CCCN=C(N)N)C(=O)O)c(=O)[nH]c1=O (centres undefined) ?
Result block: > 100 µM

Query block: Quick check: TGI of Cn1cnc(SC2=CC(=O)C=C3S[C@H]4C[C@@]23c2c(c(O)c3c5c2=NCCC=5C=N3)N4)c1CC(N)C(=O)O (some centres undefined) ?
Result block: 19.1 µM
